Test system: SH-SY5Y neuroblastoma cells
Test: Cytotoxic activity of compounds alone, MTT cell viability assay
Conditions: 50 μM compound alone, 24 h, 37 °C, 0.5% DMSO, SH-SY5Y
Experimental: Neuroprotective assays in human neuroblastoma (SH-SY5Y) cells. […] After 2 h incubating at 37 °C, the optical density (OD) at 540 nm (with a 620 nm reference filter) was measured in an Amersham Biosciences Biotrak II Plate Reader. The percentage of MTT reduction was determined according to Equation (1). […] Tabl e S2. Cytotoxic activity of each compound assessed in SH-SY5Y neuroblastoma cells via an MTT cell viability assay.a Comp ound Nr. […]
Property: MTT reduction (% control); scope: individual compounds
Output spec: scalar in %, unitless text.

As a guide, the following entries are already answered.
{"compound": "O=c1cc(-c2ccco2)oc2cc(O)cc(O)c12", "quantityUnit": "%", "MTT reduction (% control)": 129.7}
{"compound": "O=c1cc(-c2ccc(N3CCOCC3)cc2)oc2c([C@@H]3O[C@H](CO)[C@@H](O)[C@H](O)[C@H]3O)c(O)cc(O)c12", "quantityUnit": "%", "MTT reduction (% control)": 138.5}
{"compound": "O=c1cc(-c2ccccc2)oc2c([C@@H]3O[C@H](CO)[C@@H](O)[C@H](O)[C@H]3O)c(O)cc(O)c12", "quantityUnit": "%", "MTT reduction (% control)": 142.0}
{"compound": "CCC(C)c1cc(=O)c2c(O)cc(O)cc2o1 (stereo not drawn)", "quantityUnit": "%", "MTT reduction (% control)": 109.9}
{"compound": "O=c1ccoc2cc(O)cc(O)c12 [Compound 13, 5,7-dihydroxychromen-4-one, reference compound]", "quantityUnit": "%", "MTT reduction (% control)": 71.2}

Query :: Name the value of MTT reduction (% control) reported for O=c1cc(-c2ccc(F)cc2)oc2cc(O)cc(O)c12 [Compound 7, 4′-Fluoro-5,7-dihydroxyflavone] when tested on SH-SY5Y neuroblastoma cells.
Result :: 109.4

---

Target: acetylcholinesterase (AChE) (Electrophorus electricus, UniProt O42275)
Sequence (O42275 24-633): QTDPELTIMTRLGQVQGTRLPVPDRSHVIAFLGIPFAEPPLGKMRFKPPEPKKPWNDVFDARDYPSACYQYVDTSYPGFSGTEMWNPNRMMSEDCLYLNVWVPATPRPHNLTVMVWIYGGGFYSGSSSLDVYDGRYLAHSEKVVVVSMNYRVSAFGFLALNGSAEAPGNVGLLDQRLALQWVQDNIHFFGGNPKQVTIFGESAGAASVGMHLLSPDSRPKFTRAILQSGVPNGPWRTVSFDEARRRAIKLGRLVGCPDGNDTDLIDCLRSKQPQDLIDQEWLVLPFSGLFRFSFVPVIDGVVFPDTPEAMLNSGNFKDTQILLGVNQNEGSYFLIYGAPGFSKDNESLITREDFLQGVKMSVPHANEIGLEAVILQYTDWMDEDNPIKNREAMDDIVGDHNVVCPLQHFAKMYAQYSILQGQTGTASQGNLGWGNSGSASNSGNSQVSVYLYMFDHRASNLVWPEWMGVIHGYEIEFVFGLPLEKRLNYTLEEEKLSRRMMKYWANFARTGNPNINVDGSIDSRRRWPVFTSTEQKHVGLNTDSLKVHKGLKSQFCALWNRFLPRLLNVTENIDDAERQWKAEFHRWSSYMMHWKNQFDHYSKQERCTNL
Experiment: Acetylcholinesterase inhibition, Ellman's colorimetric assay
Type: biochemical
Conditions: 100 µM compound; read-out: AChE inhibitory efficacy (percentage of inhibition)
quantityName: inhibition at 100 µM (%)
Respond numerically; units are % and should not be typed.

{"compound": "O=c1cc(-c2ccc(N3CCOCC3)cc2)oc2c([C@@H]3O[C@H](CO)[C@@H](O)[C@H](O)[C@H]3O)c(O)cc(O)c12", "targetOrSystem": "acetylcholinesterase (AChE) (Electrophorus electricus, UniProt O42275)", "quantityUnit": "%", "assayValue": 18}
{"compound": "O=c1cc(-c2ccccc2)oc2c([C@@H]3O[C@H](CO)[C@@H](O)[C@H](O)[C@H]3O)c(O)cc(O)c12", "targetOrSystem": "acetylcholinesterase (AChE) (Electrophorus electricus, UniProt O42275)", "quantityUnit": "%", "assayValue": 20}

Query :: Find the measured inhibition at 100 µM of O=c1cc(-c2ccccc2)oc2cc(O)cc(O)c12 [Compound 1, chrysin, reference compound] and report it.
Result :: 18

Query :: For the compound O=c1cc(C2CC2)oc2cc(O)cc(O)c12 , give its measured inhibition at 100 µM value.
Result :: 24

Query :: Provide only the value of recorded inhibition at 100 µM for O=c1cc(-c2ccc(N3CCCC3)cc2)oc2cc(O)cc(O)c12
Result :: 27

---

Quick reference: logD of the listed items.
Experiment: LogD7.4 determination (octan-1-ol/phosphate buffer, LC-MS)
Type: physicochemical
Conditions: octan-1-ol/phosphate buffer, pH 7.4, octan-1-ol/phosphate buffer pH 7.4, 25 °C; read-out: Log D7.4 (partition coefficient at pH 7.4)
Kindly provide the number alone.

{"compound": "CN(C)c1ccc(-c2cc(=O)c3c(O)cc(O)cc3o2)cc1 [Compound 10, 4′-Dimethylamino-5,7-dihydroxyflavone]", "quantityName": "logD", "assayValue": 3.4}

Query :: Specify logD for O=c1ccoc2c([C@@H]3O[C@H](CO)[C@@H](O)[C@H](O)[C@H]3O)c(O)cc(O)c12 [Compound 22] and stop.
Result :: -2

---

Biological target: butyrylcholinesterase (BuChE) (Equus caballus, UniProt P81908)
Construct: (BuChE, equine serum); from tissue; host or cells: equine serum
Sequence (P81908 whole entry): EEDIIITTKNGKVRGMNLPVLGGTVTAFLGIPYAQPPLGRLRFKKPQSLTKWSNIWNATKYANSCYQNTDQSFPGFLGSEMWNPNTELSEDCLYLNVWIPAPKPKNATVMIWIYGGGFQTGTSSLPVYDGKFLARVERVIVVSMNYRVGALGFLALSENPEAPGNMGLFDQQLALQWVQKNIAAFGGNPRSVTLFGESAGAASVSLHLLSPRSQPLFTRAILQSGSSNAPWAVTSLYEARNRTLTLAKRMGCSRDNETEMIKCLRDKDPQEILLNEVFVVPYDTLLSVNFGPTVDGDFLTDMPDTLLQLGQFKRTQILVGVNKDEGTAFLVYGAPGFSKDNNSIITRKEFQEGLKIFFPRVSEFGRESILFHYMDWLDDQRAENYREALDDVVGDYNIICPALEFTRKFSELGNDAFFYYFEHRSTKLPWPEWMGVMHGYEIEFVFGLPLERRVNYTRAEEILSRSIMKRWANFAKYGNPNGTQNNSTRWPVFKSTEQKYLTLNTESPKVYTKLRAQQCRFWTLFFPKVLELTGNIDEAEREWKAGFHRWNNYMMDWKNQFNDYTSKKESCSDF
Test: biochemical
quantityName: pKi
# log scale: pKi equals minus log10 of the concentration in mol/L

Query :: State pKi on butyrylcholinesterase (BuChE) (Equus caballus, UniProt P81908). Entry: O=c1cc(-c2ccccc2)oc2cc(O)cc(O)c12 [Compound 1, chrysin, reference compound]
Result :: 4.49

---

Molecular target: butyrylcholinesterase (BuChE) (Equus caballus, UniProt P81908)
Construct: (BuChE, equine serum); from tissue; host or cells: equine serum
Assay: biochemical
Settings: BuChE, Lineweaver-Burk plot; read-out: Kia (inhibition constant)
quantityName: Ki (µM)
I only need the number, in µM, no unit after it.

Query :: Look up Ki of CCC(C)c1cc(=O)c2c(O)cc(O)cc2o1 (stereo not shown) and report it.
Result :: 44

---

Experiment: Cell viability (MTT) assay in Caco-2 cells
Type: cell-based, human
Details: human; Caco-2 cells, 0.1 μM to 100 μM; read-out: IC50 (cytotoxicity)
quantityName: IC50

Query :: Name the recorded IC50 of the compound listed here: O=c1cc(-c2ccc(N3CCOCC3)cc2)oc2c([C@@H]3O[C@H](CO)[C@@H](O)[C@H](O)[C@H]3O)c(O)cc(O)c12 [Compound 19]
Result :: ≥ 100 µM

---

Experiment: LogD7.4 determination (octan-1-ol/phosphate buffer, LC-MS)
Type: physicochemical
Conditions: octan-1-ol/phosphate buffer pH 7.4, 25 °C; read-out: Log D7.4 (partition coefficient at pH 7.4)
Description: LogD7.4 determination. The in-silico prediction tool ALOGPS [4] was used to estimate the octanol-water partition coefficients (log P) of the compounds. […] For each category, two different ratios (volume of octan-1-ol to volume of buffer) were defined as experimental parameters (Table 2). […] LC-MS measurements. […] The concentrations of the analytes were quantified by the Agilent Mass Hunter Quantitative Analysis software (version B.01.04).
quantityName: logD

Query :: // Input: O=c1cc(-c2ccccc2)oc2cc(O)cc(O)c12 [Compound 1, chrysin, reference compound] . Output its logD only.
Result :: 3.6

---

Experiment: LogD7.4 determination (octan-1-ol/phosphate buffer, LC-MS)
Format: physicochemical
Conditions: octan-1-ol/phosphate buffer, pH 7.4, octan-1-ol/phosphate buffer pH 7.4, 25 °C; read-out: Log D7.4 (partition coefficient at pH 7.4)
# logD per record follows
A bare number is all that is needed in reply.

{"structureNotation": "O=c1cc(-c2ccc(F)cc2)oc2c([C@@H]3O[C@H](CO)[C@@H](O)[C@H](O)[C@H]3O)c(O)cc(O)c12", "logD": -0.2}

Query :: Using known records, supply logD for O=c1cc(-c2ccccc2)oc2c([C@@H]3O[C@H](CO)[C@@H](O)[C@H](O)[C@H]3O)c(O)cc(O)c12
Result :: 0.8

---

Experiment: LogD7.4 determination (octan-1-ol/phosphate buffer, LC-MS)
Assay type: physicochemical
Conditions: pH 7.4, Log D7.4 (partition coefficient at pH 7.4)
quantityName: logD
Respond with the number and no other words.

Query :: Determine its reported logD: O=c1cc(-c2ccc(O)cc2)oc2c([C@@H]3O[C@H](CO)[C@@H](O)[C@H](O)[C@H]3O)c(O)cc(O)c12
Result :: 0.1

---

Molecular target: butyrylcholinesterase (BuChE) (Equus caballus)
Construct: (BuChE, equine serum); from tissue; host or cells: equine serum
Assay: biochemical
Settings: read-out: BuChE inhibitory efficacy (percentage of inhibition)
Could you label it YES if measured inhibition at 100 µM is 30% or higher, and NO otherwise?

As a guide, the following entries are already answered.
{"compound": "O=c1cc(-c2ccccc2)oc2cc(O)cc(O)c12 [Compound 1, chrysin, reference compound]", "answerLabel": "YES"}
{"compound": "CCC(C)c1cc(=O)c2c(O)cc(O)cc2o1 (stereo not drawn)", "answerLabel": "YES"}
{"compound": "O=c1cc(-c2ccc(N3CCCC3)cc2)oc2cc(O)cc(O)c12", "answerLabel": "YES"}

Query :: Test whether the compound O=c1ccoc2c([C@@H]3O[C@H](CO)[C@@H](O)[C@H](O)[C@H]3O)c(O)cc(O)c12 records inhibition at 100 µM of 30% or higher.
Result :: NO

Query :: Say whether O=c1cc(-c2ccc(F)cc2)oc2cc(O)cc(O)c12 [Compound 7, 4′-Fluoro-5,7-dihydroxyflavone] shows inhibition at 100 µM of 30% or more.
Result :: NO

---

We begin with a simple list: items and their reported logD.
Assay: LogD7.4 determination (octan-1-ol/phosphate buffer, LC-MS)
Assay type: physicochemical
Conditions: octan-1-ol/phosphate buffer, pH 7.4, octan-1-ol/phosphate buffer pH 7.4, 25 °C; read-out: Log D7.4 (partition coefficient at pH 7.4)
Excerpt: LogD7.4 determination. The in-silico prediction tool ALOGPS [4] was used to estimate the octanol-water partition coefficients (log P) of the compounds. […] For each category, two different ratios (volume of octan-1-ol to volume of buffer) were defined as experimental parameters (Table 2). […] LC-MS measurements. […] The concentrations of the analytes were quantified by the Agilent Mass Hunter Quantitative Analysis software (version B.01.04).
# output: bare number, no unit

Use these answered entries as a reference point.
{"molecule": "O=c1cc(-c2ccc(N3CCOCC3)cc2)oc2c([C@@H]3O[C@H](CO)[C@@H](O)[C@H](O)[C@H]3O)c(O)cc(O)c12", "assayValue": 1.8}
{"molecule": "O=c1ccoc2cc(O)cc(O)c12 [Compound 13, 5,7-dihydroxychromen-4-one, reference compound]", "assayValue": 2.4}

Could you now consider this next molecule?
Query :: Consider the molecule O=c1cc(C2CC2)oc2cc(O)cc(O)c12 . State its measured logD.
Result :: 2.9

The reported numbers originate from paper PMC6630837.
